The measured values listed here are drawn from patent US10041937B2.

Tested on: M1 macrophages and M2 macrophages differentiated from mouse bone marrow cells
assayProtocol: Subtype identification by staining and flow cytometry of M1 and M2 macrophages differentiated from mouse bone marrow cells
Format: cell-based, Balb/c mouse
conditionSet: fluorescence intensity at peak top of histogram; compound 1 μM, 37° C., 30 minutes
outcomeMeasure: Peak position of M1 macrophage
Give the figure only, with no unit attached.

Enquiry: State the measured Peak position of M1 macrophage (M1 macrophages and M2 macrophages differentiated from mouse bone marrow cells) of COc1ccc2cc(N3c4ccc(/C=C5/SC(=S)N(CCC(=O)O)C5=O)cc4C4CCCC43)ccc2c1 (stereo not drawn)
Return: 199

Enquiry: Please respond with reported Peak position of M1 macrophage (system M1 macrophages and M2 macrophages differentiated from mouse bone marrow cells) for CCOC(=O)Cn1c(=O)/c(=C\c2ccc3c(c2)C2CCCC2N3Cc2ccccc2)s/c1=C1/SC(=S)N(CC)C1=O (stereo not drawn) .
Return: 2.34

Enquiry: Please respond with reported Peak position of M1 macrophage (system M1 macrophages and M2 macrophages differentiated from mouse bone marrow cells) for CCN1c2ccc(/C=C/C=C3/SC(=S)N(CCC(=O)O)C3=O)cc2C2CCCC21 (stereo not drawn) .
Return: 7.77
